Sourced from BindingDB's records for doi:10.1021/jm00038a002

# system under test: Sigma non-opioid intracellular receptor 1 (Cavia porcellus) (UniProt Q60492)
# Sequence (Q60492 whole entry, looked up): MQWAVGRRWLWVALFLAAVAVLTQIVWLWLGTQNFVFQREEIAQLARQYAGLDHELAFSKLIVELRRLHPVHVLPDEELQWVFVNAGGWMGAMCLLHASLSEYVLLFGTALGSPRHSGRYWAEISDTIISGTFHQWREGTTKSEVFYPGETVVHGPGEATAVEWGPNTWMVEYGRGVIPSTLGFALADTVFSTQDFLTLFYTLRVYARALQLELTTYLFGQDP
# assay explanation: Binding affinity against sigma-1 receptor in guinea pig brain using [3H](+)-pentazocine as radioligand.
pKi: −log10 of the molar value.

| compound structure | pKi |
| --- | --- |
| O=C(NC1CCN(Cc2ccccc2)CC1)c1ccccc1I | 8.79 |

====

# system under test: Sigma non-opioid intracellular receptor 1 (Cavia porcellus) (UniProt Q60492)
# assay explanation: Binding affinity against sigma-1 receptor in guinea pig brain using [3H](+)-pentazocine as radioligand
measure: Ki (nM)

| compound structure | system under test | measure | numeric readout |
| --- | --- | --- | --- |
| O=C(NC1CCN(Cc2ccccc2)CC1)c1cccc(I)c1 | Sigma non-opioid intracellular receptor 1 (Cavia porcellus) (UniProt Q60492) | Ki | 3.02 |
